tested on: Escherichia coli; assay: Minimum inhibitory concentration (MIC) by agar dilution; type: cell-based; conditions: Escherichia coli, UC9451, 20 h; E. coli UC 9451, Table CI; read-out: Minimum Inhibitory Concentration
Please go through the items and note down their MIC.
All answers are understood in µg/mL, so give the number only.

Supply measured MIC of C#CC(C)(C)n1cc(C(=O)O)c(=O)c2cc(F)c(N3CCC(N)C3)c(F)c21 (racemic) [B] in your reply.
0.125

Supply measured MIC of O=C(O)c1cn(C2CC2)c2cc(N3CCNCC3)c(F)cc2c1=O [Ciprofloxacin, reference compound] in your reply.
0.015

Supply measured MIC of C#CC(C)(C)n1cc(C(=O)O)c(=O)c2cc(F)c(N3CCC(N)C3)nc21.CS(=O)(=O)O (racemic) [E] in your reply.
0.06

Supply measured MIC of C#CCn1cc(C(=O)O)c(=O)c2cc(F)c(N3CCC(N)C3)c(F)c21 (racemic) [D] in your reply.
0.5

These measurements were taken from patent US5262417A.
